- System: MARIMO
- TEST METHOD NOTES: cell viability relative to vehicle control; higher = less cytotoxic;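 further: after 48 h exposure read by CellTiter-Glo luminescence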
- SETUP CONDITIONS: 10 µM; SRSF2 genotype: SRSF2 P95H/wt
Answer each item with its documented cell viability.

{"COMPOUND": "O=C(Nc1ccccc1)Nc1ccc(-c2ccc(C(=O)[C@@H]3CCC[C@H]3C(=O)O)cc2)cc1", "MEASURED TARGET": "MARIMO", "cell viability": "106%"}
{"COMPOUND": "O=C(/C=C/n1cnc(-c2cc(C(F)(F)F)cc(C(F)(F)F)c2)n1)N1CC(F)(F)C1", "MEASURED TARGET": "MARIMO", "cell viability": "35.7%"}
{"COMPOUND": "CC(C)OC(=O)[C@H](C)N[P@](=O)(OC[C@H]1O[C@@H](n2ccc(=O)[nH]c2=O)[C@](C)(F)[C@@H]1O)Oc1ccccc1 [Sofosbuvir(PSI-7977)]", "MEASURED TARGET": "MARIMO", "cell viability": "98.3%"}
{"COMPOUND": "COc1ccc(Cn2c3ncnc4c(ncn4Cc4ccc(OC)cc4)c-3nc2=O)cc1", "MEASURED TARGET": "MARIMO", "cell viability": "4.49%"}
{"COMPOUND": "C[C@@H]1CC(=O)c2c(ccc3c2C(=O)c2cccc(O)c2C3=O)C1", "MEASURED TARGET": "MARIMO", "cell viability": "67.6%"}
{"COMPOUND": "CCOC(=O)C1=C(C)NC(C)=C(C(=O)OC)C1c1cccc(Cl)c1Cl (stereo not drawn) [Felodipine (Plendil)]", "MEASURED TARGET": "MARIMO", "cell viability": "79.2%"}

Give measured cell viability for every item shown.
1. O=c1c(O)c(-c2ccc(O)cc2)oc2cc(O)cc(O)c12 [Kaempferol]
2. COc1cc2/c(=N/c3ccc(Br)cc3F)nc[nH]c2cc1OCC1CCN(C)CC1 [Vandetanib (ZD6474)]

98.1%
83%

---

- Tested on: OCI-AML2
- TEST METHOD NOTES: cell viability relative to vehicle control; higher = less cytotoxic
- SETUP CONDITIONS: 10 µM; SRSF2 genotype: P95H/wt
REPORTED METRIC: cell viability (%)
One number for each entry, in %.

Give cell viability for each listed item.
1. C=CCS[S+]([O-])CC=C (stereo unspecified)
2. COc1cc2ncnc(Nc3ccc(F)c(Cl)c3)c2cc1O
3. O=C1CCC[C@@H]2[C@H]3CCC[N+]4([O-])CCC[C@@H](CN12)[C@@H]34 (stereo partly specified) [Oxymatrine (Matrine N-oxide)]
4. O=C(CCNC(=O)c1ccc(OC(F)(F)F)cc1)N[C@@H]1CCCc2ccccc21

1. 89.2
2. 90.2
3. 97.7
4. 93.8

---

- System: MOLM14
- TEST METHOD NOTES: cell viability relative to vehicle control; higher = less cytotoxic
- SETUP CONDITIONS: 10 µM; SRSF2 genotype: SRSF2 P95H/wt
I'd be grateful if you could share measured cell viability for these entries.
Numbers only, in %.

Worked cases, answers included:
{"MOLECULE": "CNC(=O)c1ccccc1Sc1ccc2c(/C=C/c3ccccn3)n[nH]c2c1 [Axitinib]", "MEASURED TARGET": "MOLM14", "cell viability / %": 29.5}
{"MOLECULE": "C=CC(=O)Nc1cc(Nc2nccc(-c3c[nH]c4ccccc34)n2)c(OC)cc1N(C)CCN(C)C", "MEASURED TARGET": "MOLM14", "cell viability / %": 0.38}
{"MOLECULE": "Cc1ccc(Cl)c(Nc2ccccc2C(=O)O)c1Cl [Meclofenamate sodium]", "MEASURED TARGET": "MOLM14", "cell viability / %": 96.8}

Please state cell viability for every molecule in the list that follows.
1. CC(C)Nc1cc(-c2c[nH]c(C(=O)N[C@H](CO)c3cccc(Cl)c3)c2)c(Cl)cn1
2. CCn1c2ccccc2c2cc(Nc3ccnc(NCCCN4CCOCC4)n3)ccc21

1. 48.8
2. 2.38

These entries and their values trace back to the supplement of paper PMC10981050.
